Reported Maximum inhibition(%) of IL-2 secretion values for the following binders.
# ASSAYED_TARGET: chimeric 0401-IE class II molecule on cells of transgenic mice (human/murine chimera)
# TEST_METHOD_NOTES: cell-based or functional assay
ENDPOINT_LABEL: Maximum inhibition(%) of IL-2 secretion

BINDER	ENDPOINT_LABEL	VALUE
MS-GPC-8-10-57 Fab (Fab, V domains shown, Fab: VH-CH1 with FLAG tag and STREP tag II, VL-CL; VH residue 1 is Q in Fab; also called 1C7277) VH: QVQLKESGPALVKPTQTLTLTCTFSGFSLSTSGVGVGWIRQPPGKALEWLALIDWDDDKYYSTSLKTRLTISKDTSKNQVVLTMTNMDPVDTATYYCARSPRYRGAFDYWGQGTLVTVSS VL: DIVLTQPPSVSGAPGQRVTISCSGSESNIGNNYVQWYQQLPGTAPKLLIYDNNQRPSGVPDRFSGSKSGTSASLAITGLQSEDEADYYCQSYDLIRHVFGGGTKLTVLG	Maximum inhibition(%) of IL-2 secretion	100
MS-GPC-8-6-13 Fab (Fab, V domains shown, Fab: VH-CH1 with FLAG tag and STREP tag II, VL-CL; VH residue 1 is Q in Fab; also called 305D3) VH: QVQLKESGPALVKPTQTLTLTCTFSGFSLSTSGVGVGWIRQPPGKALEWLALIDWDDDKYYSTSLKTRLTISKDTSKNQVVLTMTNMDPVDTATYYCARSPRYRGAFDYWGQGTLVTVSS VL: DIVLTQPPSVSGAPGQRVTISCSGSESNIGANYVTWYQQLPGTAPKLLIYDNNQRPSGVPDRFSGSKSGTSASLAITGLQSEDEADYYCQSYDYDHYVFGGGTKLTVLG	Maximum inhibition(%) of IL-2 secretion	100
MS-GPC-8-6 Fab (Fab, V domains shown, Fab: VH-CH1 with FLAG tag and STREP tag II, VL-CL; VH residue 1 is Q in Fab) VH: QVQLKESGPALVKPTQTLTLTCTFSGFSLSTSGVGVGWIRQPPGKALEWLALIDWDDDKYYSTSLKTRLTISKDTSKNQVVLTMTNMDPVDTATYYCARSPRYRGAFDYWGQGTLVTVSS VL: DIVLTQPPSVSGAPGQRVTISCSGSSSNIGSNYVSWYQQLPGTAPKLLIYDNNQRPSGVPDRFSGSKSGTSASLAITGLQSEDEADYYCQSYDYDHYVFGGGTKLTVLG	Maximum inhibition(%) of IL-2 secretion	100
MS-GPC-8-6-19 Fab (Fab, V domains shown, Fab: VH-CH1 with FLAG tag and STREP tag II, VL-CL; VH residue 1 is Q in Fab) VH: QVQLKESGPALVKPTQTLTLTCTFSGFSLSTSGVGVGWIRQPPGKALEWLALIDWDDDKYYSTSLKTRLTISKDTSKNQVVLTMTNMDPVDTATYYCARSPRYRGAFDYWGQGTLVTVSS VL: DIVLTQPPSVSGAPGQRVTISCSGSESNIGSNYVAWYQQLPGTAPKLLIYDNNQRPSGVPDRFSGSKSGTSASLAITGLQSEDEADYYCQSYDYDHYVFGGGTKLTVLG	Maximum inhibition(%) of IL-2 secretion	100
MS-GPC-8-10-57 IgG4 (antibody, V domains shown, also called 1C7277; IgG form of MS-GPC-8-10-57) VH: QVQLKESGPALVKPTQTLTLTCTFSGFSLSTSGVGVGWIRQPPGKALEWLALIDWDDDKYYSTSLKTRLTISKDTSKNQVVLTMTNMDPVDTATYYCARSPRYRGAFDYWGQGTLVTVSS VL: DIVLTQPPSVSGAPGQRVTISCSGSESNIGNNYVQWYQQLPGTAPKLLIYDNNQRPSGVPDRFSGSKSGTSASLAITGLQSEDEADYYCQSYDLIRHVFGGGTKLTVLG	Maximum inhibition(%) of IL-2 secretion	100
